- measured.on: Prostaglandin G/H synthase 1 (Ovis aries, UniProt P05979)
- Sequence (P05979 whole entry): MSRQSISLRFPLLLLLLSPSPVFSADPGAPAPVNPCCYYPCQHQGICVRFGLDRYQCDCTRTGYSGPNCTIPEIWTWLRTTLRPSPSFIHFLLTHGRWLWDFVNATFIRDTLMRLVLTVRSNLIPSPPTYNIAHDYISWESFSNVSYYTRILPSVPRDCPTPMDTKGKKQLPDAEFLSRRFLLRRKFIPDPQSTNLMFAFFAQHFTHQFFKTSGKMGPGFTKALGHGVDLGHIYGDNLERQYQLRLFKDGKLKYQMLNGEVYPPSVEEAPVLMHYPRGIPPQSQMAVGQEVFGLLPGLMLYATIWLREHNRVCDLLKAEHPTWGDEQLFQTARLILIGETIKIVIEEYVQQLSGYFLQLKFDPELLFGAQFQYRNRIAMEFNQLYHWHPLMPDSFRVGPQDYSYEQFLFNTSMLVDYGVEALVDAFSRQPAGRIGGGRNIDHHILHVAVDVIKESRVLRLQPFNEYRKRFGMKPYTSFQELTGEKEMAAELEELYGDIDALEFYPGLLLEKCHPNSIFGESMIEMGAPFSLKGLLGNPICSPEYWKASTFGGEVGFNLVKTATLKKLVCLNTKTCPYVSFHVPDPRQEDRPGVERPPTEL
- experiment: Inhibition of ovine COX1 assessed as inhibition of PGF2alpha production from PGH2 preincubated for 5 mins before arachidonic acid addition measured after 2 mins by enzyme immunoassay
pIC50: −log10 of the molar value.
The compounds listed here are annotated with their pIC50.
metric: pIC50

> print(dat)
                                    compound  metric  recorded.result
 1    COc1cc(CN2C(=O)c3ccccc3C2=O)cc(OC)c1OC   pIC50           < 4.00
 2  COc1cc(CN2C(=O)c3cccc4cccc(c34)C2=O)cc(OC)c1OC   pIC50           < 4.00
 3  O=C1C2CC=CCC2C(=O)N1Cc1ccc(F)cc1 (configuration not stated)   pIC50           < 4.00
 4          COc1ccc(CN2C(=O)c3ccccc3C2=O)cc1   pIC50             3.96
 5                 O=C1CCC(=O)N1Cc1ccc(F)cc1   pIC50           < 4.00
 6  COc1ccc(CN2C(=O)c3cccc4cccc(c34)C2=O)cc1   pIC50           < 4.00
 7           O=C1c2ccccc2C(=O)N1Cc1ccc(F)cc1   pIC50             3.94
 8       COc1ccc(CN2C(=O)c3ccc(C)cc3C2=O)cc1   pIC50           < 4.00
 9          COc1cc(CN2C(=O)CCC2=O)cc(OC)c1OC   pIC50           < 4.00
10   O=C1c2cccc3cccc(c23)C(=O)N1Cc1ccc(F)cc1   pIC50           < 4.00
11  COc1ccc(CN2C(=O)c3ccc(C(C)(C)C)cc3C2=O)cc1   pIC50           < 4.00
12   O=C1c2cc(Cl)c(Cl)cc2C(=O)N1Cc1ccc(F)cc1   pIC50           < 4.00
